- Measured target: T1, human tissue factor pathway inhibitor (TFPI) (human, UniProt P10646 29-304, limits assumed)
- T1 construct: bought; also called hTFPI; human TFPI
- T1 sequence (looked up): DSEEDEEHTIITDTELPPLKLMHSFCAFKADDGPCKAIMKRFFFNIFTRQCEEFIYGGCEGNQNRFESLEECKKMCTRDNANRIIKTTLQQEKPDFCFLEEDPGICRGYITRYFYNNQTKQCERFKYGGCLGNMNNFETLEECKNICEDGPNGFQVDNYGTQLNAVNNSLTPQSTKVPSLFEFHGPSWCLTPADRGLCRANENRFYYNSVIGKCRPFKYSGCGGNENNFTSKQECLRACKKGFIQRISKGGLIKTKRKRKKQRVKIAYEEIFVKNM
- Method description: competitive ELISA
For each of the binders below, state its variant/wild-type.
Numbers only, in ratio.

A selection of reference data follows.
Binder	Test value
4B7 HC_S33G (Fab, V domains shown) VH: QVQLQQSGPGLVKPSQTLSLTCAISGDSVSSNGAAWSWIRQSPGRGLEWLGIIYKRSKWYNDYAVSVKSRITINPDTSKNQFSLQLNSVTPEDTAVYYCARWHSDKHWGFDYWGQGTLVTVSS VL: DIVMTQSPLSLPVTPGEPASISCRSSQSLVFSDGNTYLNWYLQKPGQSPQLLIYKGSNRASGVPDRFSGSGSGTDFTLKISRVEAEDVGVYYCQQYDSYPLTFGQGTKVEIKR	1.5
4B7 HC_D62Q (Fab, V domains shown) VH: QVQLQQSGPGLVKPSQTLSLTCAISGDSVSSNSAAWSWIRQSPGRGLEWLGIIYKRSKWYNQYAVSVKSRITINPDTSKNQFSLQLNSVTPEDTAVYYCARWHSDKHWGFDYWGQGTLVTVSS VL: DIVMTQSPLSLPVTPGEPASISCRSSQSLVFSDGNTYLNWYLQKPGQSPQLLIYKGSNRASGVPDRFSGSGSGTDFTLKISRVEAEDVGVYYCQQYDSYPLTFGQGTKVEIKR	20.6

Then there is this binder:
# variant/wild-type of 4B7 HC_N32E (Fab, V domains shown) VH: QVQLQQSGPGLVKPSQTLSLTCAISGDSVSSESAAWSWIRQSPGRGLEWLGIIYKRSKWYNDYAVSVKSRITINPDTSKNQFSLQLNSVTPEDTAVYYCARWHSDKHWGFDYWGQGTLVTVSS VL: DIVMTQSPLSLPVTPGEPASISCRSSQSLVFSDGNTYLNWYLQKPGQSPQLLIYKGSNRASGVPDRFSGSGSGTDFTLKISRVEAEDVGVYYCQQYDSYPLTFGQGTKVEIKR = 3.2
